- TARGET: Mitogen-activated protein kinase 3 (Homo sapiens) (UniProt P27361);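 note: each value is a mean inhibition figure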
- Sequence (P27361 whole entry): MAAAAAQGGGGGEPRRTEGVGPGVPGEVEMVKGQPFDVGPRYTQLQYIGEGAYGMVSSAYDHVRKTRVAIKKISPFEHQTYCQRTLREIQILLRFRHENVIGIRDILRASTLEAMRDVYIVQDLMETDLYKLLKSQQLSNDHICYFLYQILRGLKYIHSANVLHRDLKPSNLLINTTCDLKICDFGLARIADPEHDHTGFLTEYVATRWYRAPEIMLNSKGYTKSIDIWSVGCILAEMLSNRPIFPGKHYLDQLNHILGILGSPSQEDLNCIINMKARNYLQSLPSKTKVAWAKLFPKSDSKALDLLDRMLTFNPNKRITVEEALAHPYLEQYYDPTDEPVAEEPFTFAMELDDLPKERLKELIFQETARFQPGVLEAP
- RECORDED CONDITIONS: at 0.1 µM
Items are presented alongside their recorded inhibition.
Give a bare numeral; the unit % is implied.

Guide cases for inhibition, answers given:
Fc1ccc(-c2ncn(C3CCNCC3)c2-c2ccnc(Oc3ccc(F)c(F)c3)n2)cc1 :: 3.84
C#Cc1cccc(Nc2ncnc3ccc(OCCCCNCCS(C)(=O)=O)cc23)c1 :: 4.38
NC(=O)c1cc(-c2ccncc2)cc(-c2ccccc2)c1N :: 3.98
NS(=O)(=O)c1ccc(N/N=C2\C(=O)Nc3ccc(-c4cnco4)cc32)cc1 :: 2.36
CN(C)c1ccc2c(c1)/C(=C/Nc1ccc(S(N)(=O)=O)cc1)C(=O)N2 :: 0.06
O=C(Nc1n[nH]c2cc(-c3cc(F)ccc3F)ccc12)C1CC1 :: 4.01
COc1ccc2ncn(-c3cc(O[C@H](C)c4ccccc4Cl)c(C(N)=O)s3)c2c1 :: 4.56
Clc1ccc(CNc2nccc(-c3cnn4ncccc34)n2)cc1 :: 3.04
COc1ccc(-c2ccc3c(NC(=O)C4CC4)n[nH]c3n2)cc1 :: 4.98
COc1ccc(C2=C(N3CCc4ccccc43)C(=O)NC2=O)cc1 :: 4.13

Inquiry: I have this molecule here, `O=C(Nc1n[nH]c2nc(-c3ccco3)ccc12)C1CC1` , and I need its recorded inhibition.
Reply text: 0.6

###

- TARGET: Tyrosine-protein kinase JAK3 (Homo sapiens);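 note: values reported are mean percent inhibition of JAK3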
- RECORDED CONDITIONS: at 0.1 µM
MEASURE: inhibition (%)
Give a bare numeral; the unit % is implied.

CCc1nccc2c1nc(-c1nonc1N)n2CC :: 0
Nc1nccc(-c2c(-c3ccc(F)cc3)ncn2C2CCC(O)CC2)n1 (centres undefined) :: 1.29
COc1ccc2ncn(-c3cc(O[C@H](C)c4ccccc4Cl)c(C(N)=O)s3)c2c1 :: -7
Fc1ccc(-c2ncn(C3CCNCC3)c2-c2ccnc(Oc3ccc(Oc4ccccc4)cc3)n2)cc1 :: 1.04
NS(=O)(=O)c1ccc(Nc2cc(-c3ccc(O)c(F)c3)n[nH]2)cc1 :: 0.11

Pending molecule:
Inquiry: I have this molecule here, `NS(=O)(=O)c1ccc(N/N=C2\C(=O)Nc3ccc(-c4cnco4)cc32)cc1` , and I need its recorded inhibition.
Reply text: -4.76

###

- TARGET: Death-associated protein kinase 1 (Homo sapiens) (UniProt P53355);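 note: reported figure is the mean inhibition of DAPK1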
- Sequence (P53355 whole entry, looked up): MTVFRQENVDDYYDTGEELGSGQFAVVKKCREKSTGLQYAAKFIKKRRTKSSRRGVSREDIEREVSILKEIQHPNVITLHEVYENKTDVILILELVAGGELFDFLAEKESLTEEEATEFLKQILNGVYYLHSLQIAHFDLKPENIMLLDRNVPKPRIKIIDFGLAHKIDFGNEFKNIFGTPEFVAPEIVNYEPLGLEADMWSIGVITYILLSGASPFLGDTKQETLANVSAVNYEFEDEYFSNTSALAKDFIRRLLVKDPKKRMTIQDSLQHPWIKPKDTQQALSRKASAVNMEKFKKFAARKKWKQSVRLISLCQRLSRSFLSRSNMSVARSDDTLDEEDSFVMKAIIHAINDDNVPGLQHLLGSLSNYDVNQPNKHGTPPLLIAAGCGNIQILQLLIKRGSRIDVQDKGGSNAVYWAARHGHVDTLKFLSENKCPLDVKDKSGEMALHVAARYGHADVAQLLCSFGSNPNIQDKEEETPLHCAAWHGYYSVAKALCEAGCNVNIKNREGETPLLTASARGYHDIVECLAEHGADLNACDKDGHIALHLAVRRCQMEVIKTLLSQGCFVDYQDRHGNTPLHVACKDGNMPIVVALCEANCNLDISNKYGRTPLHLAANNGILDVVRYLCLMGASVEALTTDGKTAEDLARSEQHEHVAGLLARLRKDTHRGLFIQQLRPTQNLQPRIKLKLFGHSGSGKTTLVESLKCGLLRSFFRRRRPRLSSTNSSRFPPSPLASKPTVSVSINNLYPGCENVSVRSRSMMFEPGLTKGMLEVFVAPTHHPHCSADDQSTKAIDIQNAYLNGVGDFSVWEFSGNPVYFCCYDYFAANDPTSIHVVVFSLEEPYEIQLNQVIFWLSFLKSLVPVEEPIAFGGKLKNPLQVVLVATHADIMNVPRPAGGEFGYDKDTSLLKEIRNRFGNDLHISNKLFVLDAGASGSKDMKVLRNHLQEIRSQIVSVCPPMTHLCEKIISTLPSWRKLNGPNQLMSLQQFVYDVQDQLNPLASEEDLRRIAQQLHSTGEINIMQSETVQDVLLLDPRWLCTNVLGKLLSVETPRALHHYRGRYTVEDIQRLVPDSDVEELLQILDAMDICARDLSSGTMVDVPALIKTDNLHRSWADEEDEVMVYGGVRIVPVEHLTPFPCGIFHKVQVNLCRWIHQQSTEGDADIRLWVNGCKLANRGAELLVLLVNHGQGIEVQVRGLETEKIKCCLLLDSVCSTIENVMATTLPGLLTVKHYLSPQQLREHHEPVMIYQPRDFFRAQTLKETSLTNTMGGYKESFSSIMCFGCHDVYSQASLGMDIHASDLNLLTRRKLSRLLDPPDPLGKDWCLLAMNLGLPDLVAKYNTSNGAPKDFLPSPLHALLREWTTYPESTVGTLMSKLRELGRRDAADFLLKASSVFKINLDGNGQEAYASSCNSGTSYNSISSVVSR
- RECORDED CONDITIONS: at 0.1 µM
MEASURE: inhibition (%)
Give a bare numeral; the unit % is implied.

Guide cases for inhibition, answers given:
O=C1Nc2ccccc2/C1=C/Nc1ccc(-n2cncn2)cc1 :: 5.75
COc1cccc(/C=N/Nc2ncnc3c2cnn3-c2cccc(OC)c2)c1 :: -0.06
CCC(=O)Nc1ccc(C)c(-c2ccc(C(=O)NCC3CC3)cc2)c1 :: -0.61
FC(F)(F)c1cccc(Nc2nccc(-c3cnn4nc(-c5ccccc5)ccc34)n2)c1 :: 3.36
NC(=O)c1cc(-c2ccc(F)cc2)cc(-c2ccncc2)c1N :: 1.26
CCc1cccc(CC)c1/C=C/c1cncc(C(=O)NC)c1 :: 2.61

Inquiry: I have this compound here, `O=C1Nc2ccc(I)cc2C1=Cc1cc(Br)c(O)c(Br)c1` , and I need its recorded inhibition.
Reply text: 1.46

Inquiry: Please do the same for `COc1cc2ncn(-c3cc(OCCc4ccccc4)c(C(N)=O)s3)c2cc1OC` as well.
Reply text: 2.25

Inquiry: Please do the same for `Fc1ccc(-c2ncn(C3CCNCC3)c2-c2ccnc(Oc3ccc(Oc4ccccc4)cc3)n2)cc1` as well.
Reply text: 12.4

Inquiry: Please do the same for `N#Cc1ccc(Oc2nccc(-c3c(-c4ccc(F)cc4)ncn3C3CCNCC3)n2)cc1` as well.
Reply text: 2.55

Inquiry: Please do the same for `CN(C)CCCNc1nccc(-c2c(-c3ccc(F)cc3)nn3cc(C(F)(F)F)ccc23)n1` as well.
Reply text: 0.55

Inquiry: Please do the same for `COc1cc(N2CCN(C(C)C)CC2)ccc1Nc1nc(Nc2ccc(F)cc2C(=O)NC[C@@H](O)CO)c2cc[nH]c2n1` as well.
Reply text: 9.94

###

Items are presented alongside their recorded inhibition.
- TARGET: Ribosomal protein S6 kinase alpha-6 (Homo sapiens) (UniProt Q9UK32);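 note: reported value is the mean inhibition of RSK4, from the GSK PKIS kinase inhibitor screen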
- Sequence (Q9UK32 whole entry): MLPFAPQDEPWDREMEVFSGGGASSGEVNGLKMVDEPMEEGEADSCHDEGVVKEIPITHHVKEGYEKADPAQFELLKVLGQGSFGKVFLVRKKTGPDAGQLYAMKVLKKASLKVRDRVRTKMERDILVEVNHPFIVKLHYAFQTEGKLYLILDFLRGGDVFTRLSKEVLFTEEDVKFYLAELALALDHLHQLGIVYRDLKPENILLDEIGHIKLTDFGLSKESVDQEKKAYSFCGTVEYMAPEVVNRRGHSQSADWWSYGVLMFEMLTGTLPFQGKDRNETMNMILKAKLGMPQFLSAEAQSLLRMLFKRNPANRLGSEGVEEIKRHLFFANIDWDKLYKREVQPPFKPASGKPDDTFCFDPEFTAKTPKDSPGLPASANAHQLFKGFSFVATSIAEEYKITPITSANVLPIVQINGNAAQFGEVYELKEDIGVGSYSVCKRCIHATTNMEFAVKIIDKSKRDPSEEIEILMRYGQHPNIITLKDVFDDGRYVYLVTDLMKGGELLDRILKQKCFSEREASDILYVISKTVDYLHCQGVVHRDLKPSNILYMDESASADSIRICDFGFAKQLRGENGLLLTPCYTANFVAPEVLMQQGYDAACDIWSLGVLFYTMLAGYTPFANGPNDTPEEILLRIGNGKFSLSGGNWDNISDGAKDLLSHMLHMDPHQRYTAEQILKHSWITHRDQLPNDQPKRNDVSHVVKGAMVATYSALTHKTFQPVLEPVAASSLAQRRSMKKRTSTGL
- RECORDED CONDITIONS: at 0.1 µM
Give a bare numeral; the unit % is implied.

Guide cases for inhibition, answers given:
COc1cc(C)c(N(C)C(=O)CN(C)C)cc1Nc1nc(Nc2cccc(F)c2C(N)=O)c2cc[nH]c2n1 :: 1.67
CS(=O)(=O)CCNCc1cc(-c2cc3c(Nc4ccc(OCc5cccc(F)c5)c(Cl)c4)ncnc3s2)cs1 :: 0.77
CCS(=O)(=O)c1ccc(OC)c(Nc2ncc(-c3cccc(-c4ccccc4F)c3)o2)c1 :: -0.01

Pending molecule:
Inquiry: I have this molecule here, `COc1ccc2cc(-c3c(-c4ccncc4)nc(-c4ccc(S(C)(=O)=O)cc4C)n3C)ccc2c1` , and I need its recorded inhibition.
Reply text: 1.53

###

- TARGET: SRSF protein kinase 1 (Homo sapiens) (UniProt Q96SB4);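 note: reported values are mean percent inhibition of SRPK1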
- Sequence (Q96SB4 whole entry): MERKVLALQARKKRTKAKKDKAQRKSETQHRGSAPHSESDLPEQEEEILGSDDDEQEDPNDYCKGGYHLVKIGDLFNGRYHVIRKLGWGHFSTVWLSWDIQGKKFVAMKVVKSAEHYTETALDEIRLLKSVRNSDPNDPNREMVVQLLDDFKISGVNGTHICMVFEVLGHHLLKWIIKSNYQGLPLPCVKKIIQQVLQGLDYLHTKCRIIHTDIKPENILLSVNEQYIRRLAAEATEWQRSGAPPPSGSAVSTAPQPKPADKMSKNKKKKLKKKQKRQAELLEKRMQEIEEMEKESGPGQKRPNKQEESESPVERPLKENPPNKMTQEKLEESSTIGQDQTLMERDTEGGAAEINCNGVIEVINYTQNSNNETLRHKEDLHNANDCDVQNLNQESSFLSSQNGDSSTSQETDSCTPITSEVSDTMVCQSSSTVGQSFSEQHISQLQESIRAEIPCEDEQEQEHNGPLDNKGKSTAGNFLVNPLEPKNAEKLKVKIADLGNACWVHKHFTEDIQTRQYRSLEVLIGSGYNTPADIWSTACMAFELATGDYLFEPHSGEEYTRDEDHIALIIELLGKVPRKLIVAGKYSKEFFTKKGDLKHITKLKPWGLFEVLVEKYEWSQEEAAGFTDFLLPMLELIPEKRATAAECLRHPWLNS
- RECORDED CONDITIONS: at 1 µM
MEASURE: inhibition (%)
Give a bare numeral; the unit % is implied.

NC(=O)c1cc(-c2ccc(F)cc2)cc(-c2ccncc2)c1N :: -2.78

Inquiry: Short answer please: inhibition, SRSF protein kinase 1 (Homo sapiens) (UniProt Q96SB4), entry `COc1cc2ncn(-c3cc(OCc4cccs4)c(C(N)=O)s3)c2cc1OC`
Reply text: 7.84

Inquiry: Please do the same for Nc1nccc(-c2c(-c3ccc(F)cc3)ncn2C2CCC(O)CC2)n1 (stereo not given) as well.
Reply text: 4.67

Inquiry: Please do the same for `CCS(=O)(=O)c1ccc(OC)c(Nc2ncc(-c3cccc(-c4ccccc4F)c3)o2)c1` as well.
Reply text: 2.33

###

- TARGET: Serine/threonine-protein kinase BRSK1 (Homo sapiens)
- Sequence (whole entry): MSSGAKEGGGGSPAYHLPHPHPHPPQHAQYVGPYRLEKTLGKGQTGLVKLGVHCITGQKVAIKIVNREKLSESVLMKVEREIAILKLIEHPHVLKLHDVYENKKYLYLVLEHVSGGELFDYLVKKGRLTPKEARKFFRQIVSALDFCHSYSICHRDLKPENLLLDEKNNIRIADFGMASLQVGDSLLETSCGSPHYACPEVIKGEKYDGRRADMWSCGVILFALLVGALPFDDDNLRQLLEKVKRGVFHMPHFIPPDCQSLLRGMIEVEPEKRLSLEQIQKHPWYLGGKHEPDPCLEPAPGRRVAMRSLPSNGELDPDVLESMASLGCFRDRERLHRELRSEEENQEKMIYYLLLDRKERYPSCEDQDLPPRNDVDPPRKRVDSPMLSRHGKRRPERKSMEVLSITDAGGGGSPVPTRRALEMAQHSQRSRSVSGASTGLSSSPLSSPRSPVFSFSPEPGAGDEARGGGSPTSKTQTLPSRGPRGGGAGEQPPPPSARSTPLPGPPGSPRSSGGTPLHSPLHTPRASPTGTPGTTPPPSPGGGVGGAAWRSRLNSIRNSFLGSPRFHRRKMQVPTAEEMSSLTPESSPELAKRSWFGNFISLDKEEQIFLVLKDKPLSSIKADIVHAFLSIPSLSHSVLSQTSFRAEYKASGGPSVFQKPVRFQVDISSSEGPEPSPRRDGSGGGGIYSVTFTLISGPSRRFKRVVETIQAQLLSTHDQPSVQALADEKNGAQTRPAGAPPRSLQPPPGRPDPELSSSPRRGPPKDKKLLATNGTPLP
- RECORDED CONDITIONS: at 0.1 µM
- Description: GSK_PKIS: BRSK1 mean inhibition at 0.1 uM [Nanosyn]
MEASURE: inhibition (%)
Give a bare numeral; the unit % is implied.

Fc1ccc(-c2ncn(CCCN3CCOCC3)c2-c2ccncc2)cc1 :: 1.09
NC(=O)Cc1ccccc1Oc1nccc(-c2c(-c3ccc(F)cc3)ncn2C2CCNCC2)n1 :: 4.71
N#Cc1ccc(Oc2nccc(-c3c(-c4ccc(F)cc4)ncn3C3CCNCC3)n2)cc1 :: -2.05
COC(=O)Nc1nc2ccc(Sc3ccc(NC(=O)Nc4cc(C(F)(F)F)ccc4F)cc3)cc2[nH]1 :: -1.14
Fc1ccc(-c2ncn(C3CCNCC3)c2-c2ccnc(Oc3ccc(F)c(F)c3)n2)cc1 :: 1.29
C[C@@H](Oc1cc(-n2cnc3ccc(OCC4CCN(C)CC4)cc32)sc1C(N)=O)c1ccccc1Cl :: 28.5
O=C(Nc1n[nH]c2nc(-c3ccc(O)cc3)c(Br)cc12)C1CC1 :: 25.8
O=C1NC(=O)C(c2cccc(Cl)c2)=C1Nc1ccc(Cl)c(C(=O)O)c1 :: -0.75

Inquiry: I have this molecule here, `O=C1Nc2ccc(I)cc2C1=Cc1cc(Br)c(O)c(Br)c1` , and I need its recorded inhibition.
Reply text: 3.87

Inquiry: Please do the same for `CCS(=O)(=O)c1ccc(OC)c(Nc2ncc(-c3ccccc3Cl)o2)c1` as well.
Reply text: -1

Inquiry: Please do the same for `CCc1cccc(CC)c1/C=C/c1cncc(C(=O)NC)c1` as well.
Reply text: 1.79

Inquiry: Please do the same for `Cc1ccc(C(=O)NC(C)C)cc1-c1ccc(C(=O)NCC2CC2)cc1` as well.
Reply text: 1.12

Inquiry: Please do the same for `FC(F)(F)c1cccc(Nc2nccc(-c3cnn4nc(-c5ccccc5)ccc34)n2)c1` as well.
Reply text: -0.11

Inquiry: Please do the same for `Cc1ccc(NC(=O)c2ccoc2)cc1-c1ccc(C(=O)NCC2CC2)cc1` as well.
Reply text: 0

Inquiry: Please do the same for `CCS(=O)(=O)c1ccc(OC)c(Nc2ncc(-c3cccc(-c4ccccc4F)c3)o2)c1` as well.
Reply text: -0.47

Inquiry: Please do the same for Nc1nccc(-c2c(-c3ccc(F)cc3)ncn2C2CCC(O)CC2)n1 (stereo not given) as well.
Reply text: 0.33

Inquiry: Please do the same for `O=C1Nc2ccccc2/C1=C/Nc1ccc(-n2cncn2)cc1` as well.
Reply text: 2.17

Inquiry: Please do the same for `C/C(Nc1ccc(S(N)(=O)=O)cc1)=C1/C(=O)Nc2ccccc21` as well.
Reply text: 1.67

Inquiry: Please do the same for `COc1cccc(-n2cnc3c(N/N=C/c4ccncc4)ncnc32)c1` as well.
Reply text: -0.01

Inquiry: Please do the same for `CN(C)CCOc1ccc(-c2cc(-c3ccc4c(c3)CCC4=NO)c(-c3ccncc3)o2)cc1` as well.
Reply text: -0.05

Inquiry: Please do the same for `Fc1ccc(-c2ncn(C3CCNCC3)c2-c2ccnc(Oc3ccc4c(c3)OCO4)n2)cc1` as well.
Reply text: 0.76

Inquiry: Please do the same for `Clc1ccc(CNc2nccc(-c3cnn4ncccc34)n2)cc1` as well.
Reply text: 0.41

Inquiry: Please do the same for `C#Cc1cccc(Nc2ncnc3ccc(OCCCCNCCS(C)(=O)=O)cc23)c1` as well.
Reply text: 1.77

Inquiry: Please do the same for `COc1cc(Nc2ncc3c(C)nc(-c4cccc(C(F)(F)F)c4)n3n2)cc(OC)c1OC` as well.
Reply text: 4.57

Inquiry: Please do the same for `CCN(CC)Cc1ccc(Nc2nccc(-c3cnn4ncccc34)n2)cc1` as well.
Reply text: 3.36

These data points were gathered from ChEMBL document CHEMBL1961873.
